SYSTEM: COX-2 (Homo sapiens, UniProt P35354)
Sequence (P35354 18-604): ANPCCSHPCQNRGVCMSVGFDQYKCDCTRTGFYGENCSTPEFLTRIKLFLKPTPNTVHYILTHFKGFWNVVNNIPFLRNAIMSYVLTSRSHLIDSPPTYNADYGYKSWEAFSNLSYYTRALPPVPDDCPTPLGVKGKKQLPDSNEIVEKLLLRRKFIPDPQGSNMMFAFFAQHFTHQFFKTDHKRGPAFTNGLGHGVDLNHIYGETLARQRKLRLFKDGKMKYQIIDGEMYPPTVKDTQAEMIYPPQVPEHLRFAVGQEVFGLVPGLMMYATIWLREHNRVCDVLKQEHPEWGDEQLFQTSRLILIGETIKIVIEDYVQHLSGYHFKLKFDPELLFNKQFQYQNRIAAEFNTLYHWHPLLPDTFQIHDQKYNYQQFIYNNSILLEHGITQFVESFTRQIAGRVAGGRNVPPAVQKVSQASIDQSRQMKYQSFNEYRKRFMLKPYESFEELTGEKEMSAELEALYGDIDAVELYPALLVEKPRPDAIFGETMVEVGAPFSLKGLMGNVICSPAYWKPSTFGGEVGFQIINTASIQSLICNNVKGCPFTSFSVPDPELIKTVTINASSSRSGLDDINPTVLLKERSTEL
PARAMETER: log10(IC50) (log10 of the value in nM)

[
  {
    "SMILES_ENTRY": "CC(=O)Oc1ccccc1C(=O)N1C/C(=C\\c2cccs2)C(=O)/C(=C/c2cccs2)C1",
    "log10(IC50)": 2.89
  },
  {
    "SMILES_ENTRY": "CC(=O)Oc1ccccc1C(=O)N1C/C(=C\\c2ccc(C)cc2)C(=O)/C(=C/c2ccc(C)cc2)C1",
    "log10(IC50)": 3.19
  },
  {
    "SMILES_ENTRY": "CC(=O)Oc1ccc(Cl)cc1C(=O)N1C/C(=C\\c2cccs2)C(=O)/C(=C/c2cccs2)C1",
    "log10(IC50)": 2.14
  },
  {
    "SMILES_ENTRY": "CC(=O)Oc1ccc(Cl)cc1C(=O)N1C/C(=C\\c2ccccc2)C(=O)/C(=C/c2ccccc2)C1",
    "log10(IC50)": 3.08
  },
  {
    "SMILES_ENTRY": "CC(=O)Oc1ccccc1C(=O)N1C/C(=C\\c2ccc(Cl)cc2)C(=O)/C(=C/c2ccc(Cl)cc2)C1",
    "log10(IC50)": 3.35
  },
  {
    "SMILES_ENTRY": "COc1cc(/C=C2\\CN(C(=O)c3cc(Cl)ccc3OC(C)=O)C/C(=C\\c3cc(OC)c(OC)c(OC)c3)C2=O)cc(OC)c1OC",
    "log10(IC50)": 3.20
  },
  {
    "SMILES_ENTRY": "COc1cc(/C=C2\\CN(C(=O)c3ccccc3OC(C)=O)C/C(=C\\c3cc(OC)c(OC)c(OC)c3)C2=O)cc(OC)c1OC",
    "log10(IC50)": 2.64
  },
  {
    "SMILES_ENTRY": "CC(=O)Oc1ccccc1C(=O)N1C/C(=C\\c2ccc(Br)cc2)C(=O)/C(=C/c2ccc(Br)cc2)C1",
    "log10(IC50)": 3.05
  },
  {
    "SMILES_ENTRY": "COc1ccc(/C=C2\\CN(C(=O)c3ccccc3OC(C)=O)C/C(=C\\c3ccc(OC)c(OC)c3)C2=O)cc1OC",
    "log10(IC50)": 3.34
  },
  {
    "SMILES_ENTRY": "CC(=O)Oc1ccccc1C(=O)N1C/C(=C\\c2ccccc2)C(=O)/C(=C/c2ccccc2)C1",
    "log10(IC50)": 3.19
  },
  {
    "SMILES_ENTRY": "CC(=O)Oc1ccccc1C(=O)N1C/C(=C\\c2ccc(F)cc2)C(=O)/C(=C/c2ccc(F)cc2)C1",
    "log10(IC50)": 2.65
  },
  {
    "SMILES_ENTRY": "COc1ccc(/C=C2\\CN(C(=O)c3cc(Cl)ccc3OC(C)=O)C/C(=C\\c3ccc(OC)c(OC)c3)C2=O)cc1OC",
    "log10(IC50)": 2.56
  },
  {
    "SMILES_ENTRY": "CC(=O)Oc1ccc(Cl)cc1C(=O)N1C/C(=C\\c2ccc(Br)cc2)C(=O)/C(=C/c2ccc(Br)cc2)C1",
    "log10(IC50)": 3.00
  },
  {
    "SMILES_ENTRY": "CC(=O)Oc1ccc(Cl)cc1C(=O)N1C/C(=C\\c2ccc(Cl)cc2)C(=O)/C(=C/c2ccc(Cl)cc2)C1",
    "log10(IC50)": 2.83
  },
  {
    "SMILES_ENTRY": "COc1ccc(/C=C2\\CN(C(=O)c3ccccc3OC(C)=O)C/C(=C\\c3ccc(OC)cc3)C2=O)cc1",
    "log10(IC50)": 2.50
  },
  {
    "SMILES_ENTRY": "COc1ccc(/C=C2\\CN(C(=O)c3cc(Cl)ccc3OC(C)=O)C/C(=C\\c3ccc(OC)cc3)C2=O)cc1",
    "log10(IC50)": 2.50
  }
]

---

SYSTEM: VEGFR-2 (Homo sapiens)
Sequence (P35968 20-1356): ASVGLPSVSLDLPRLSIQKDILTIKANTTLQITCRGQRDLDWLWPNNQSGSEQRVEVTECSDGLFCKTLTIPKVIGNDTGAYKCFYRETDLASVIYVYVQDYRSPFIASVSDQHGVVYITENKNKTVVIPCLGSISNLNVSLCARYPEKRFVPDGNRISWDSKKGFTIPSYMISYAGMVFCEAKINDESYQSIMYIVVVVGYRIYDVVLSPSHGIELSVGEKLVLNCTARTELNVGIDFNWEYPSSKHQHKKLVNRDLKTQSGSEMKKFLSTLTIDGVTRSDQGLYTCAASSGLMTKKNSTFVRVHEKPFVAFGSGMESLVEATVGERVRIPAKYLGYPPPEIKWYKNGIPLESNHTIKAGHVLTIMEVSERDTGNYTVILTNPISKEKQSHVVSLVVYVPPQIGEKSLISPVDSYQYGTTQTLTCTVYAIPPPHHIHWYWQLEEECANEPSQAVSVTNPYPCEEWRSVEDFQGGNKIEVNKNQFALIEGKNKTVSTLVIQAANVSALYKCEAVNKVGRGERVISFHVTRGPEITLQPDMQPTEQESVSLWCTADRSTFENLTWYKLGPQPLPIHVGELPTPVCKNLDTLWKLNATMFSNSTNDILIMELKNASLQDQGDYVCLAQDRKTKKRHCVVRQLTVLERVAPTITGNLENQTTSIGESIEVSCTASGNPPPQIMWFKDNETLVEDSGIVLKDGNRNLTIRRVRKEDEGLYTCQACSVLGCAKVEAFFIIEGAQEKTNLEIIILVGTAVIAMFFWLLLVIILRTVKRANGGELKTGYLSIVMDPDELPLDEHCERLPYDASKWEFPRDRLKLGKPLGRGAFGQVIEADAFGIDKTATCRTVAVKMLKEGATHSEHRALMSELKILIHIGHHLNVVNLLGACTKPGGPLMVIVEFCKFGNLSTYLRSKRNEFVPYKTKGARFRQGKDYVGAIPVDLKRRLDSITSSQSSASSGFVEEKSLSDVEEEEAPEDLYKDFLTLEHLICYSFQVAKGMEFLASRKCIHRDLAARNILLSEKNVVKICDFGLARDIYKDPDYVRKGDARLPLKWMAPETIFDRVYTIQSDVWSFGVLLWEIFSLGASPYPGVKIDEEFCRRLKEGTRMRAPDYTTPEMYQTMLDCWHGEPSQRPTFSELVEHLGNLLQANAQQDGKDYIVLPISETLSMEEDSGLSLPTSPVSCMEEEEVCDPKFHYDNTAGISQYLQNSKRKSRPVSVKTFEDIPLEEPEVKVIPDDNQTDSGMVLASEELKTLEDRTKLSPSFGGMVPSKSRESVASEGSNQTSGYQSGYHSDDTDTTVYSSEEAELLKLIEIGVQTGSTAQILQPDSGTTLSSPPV
EXPERIMENTAL_DETAILS: VEGFR-2 Western blot in MCF7
Assay type: cell-based
EXPERIMENTAL_CONDITIONS: Western blot at MTT-IC50, control RQ 3.725
Measured VEGFR2 MCF7 RQ (relative quantification) by item
PARAMETER: VEGFR2 MCF7 RQ (relative quantification)

[
  {
    "SMILES_ENTRY": "COc1ccc(/C=C2\\CN(C(=O)c3cc(Cl)ccc3OC(C)=O)C/C(=C\\c3ccc(OC)c(OC)c3)C2=O)cc1OC",
    "PARAMETER": "VEGFR2 MCF7 RQ (relative quantification)",
    "MEASURED_VALUE": 2.338
  },
  {
    "SMILES_ENTRY": "CC(=O)Oc1ccccc1C(=O)N1C/C(=C\\c2ccc(Br)cc2)C(=O)/C(=C/c2ccc(Br)cc2)C1",
    "PARAMETER": "VEGFR2 MCF7 RQ (relative quantification)",
    "MEASURED_VALUE": 1.91
  },
  {
    "SMILES_ENTRY": "CC(=O)Oc1ccccc1C(=O)N1C/C(=C\\c2cccs2)C(=O)/C(=C/c2cccs2)C1",
    "PARAMETER": "VEGFR2 MCF7 RQ (relative quantification)",
    "MEASURED_VALUE": 2.000
  },
  {
    "SMILES_ENTRY": "CC(=O)Oc1ccc(Cl)cc1C(=O)N1C/C(=C\\c2ccc(Cl)cc2)C(=O)/C(=C/c2ccc(Cl)cc2)C1",
    "PARAMETER": "VEGFR2 MCF7 RQ (relative quantification)",
    "MEASURED_VALUE": 1.5
  },
  {
    "SMILES_ENTRY": "CC(=O)Oc1ccc(Cl)cc1C(=O)N1C/C(=C\\c2ccc(Br)cc2)C(=O)/C(=C/c2ccc(Br)cc2)C1",
    "PARAMETER": "VEGFR2 MCF7 RQ (relative quantification)",
    "MEASURED_VALUE": 1.1
  },
  {
    "SMILES_ENTRY": "COc1cc(/C=C2\\CN(C(=O)c3ccccc3OC(C)=O)C/C(=C\\c3cc(OC)c(OC)c(OC)c3)C2=O)cc(OC)c1OC",
    "PARAMETER": "VEGFR2 MCF7 RQ (relative quantification)",
    "MEASURED_VALUE": 2.032
  },
  {
    "SMILES_ENTRY": "CC(=O)Oc1ccccc1C(=O)N1C/C(=C\\c2ccc(C)cc2)C(=O)/C(=C/c2ccc(C)cc2)C1",
    "PARAMETER": "VEGFR2 MCF7 RQ (relative quantification)",
    "MEASURED_VALUE": 2.202
  },
  {
    "SMILES_ENTRY": "COc1ccc(/C=C2\\CN(C(=O)c3cc(Cl)ccc3OC(C)=O)C/C(=C\\c3ccc(OC)cc3)C2=O)cc1",
    "PARAMETER": "VEGFR2 MCF7 RQ (relative quantification)",
    "MEASURED_VALUE": 1.966
  }
]

---

System: A431 (squamous skin) cancer cell line
EXPERIMENTAL_DETAILS: MTT antiproliferative assay, A431
Type: cell-based
EXPERIMENTAL_CONDITIONS: IC50 of RPE1 relative to that of A431
Criterion: SI (selectivity index), A431 meeting or surpassing 10. Met: 1. Not met: 0.

[
  {
    "SMILES_ENTRY": "COc1cc(/C=C2\\CN(C(=O)c3cc(Cl)ccc3OC(C)=O)C/C(=C\\c3cc(OC)c(OC)c(OC)c3)C2=O)cc(OC)c1OC",
    "CAT": 1
  },
  {
    "SMILES_ENTRY": "CC(=O)Oc1ccc(Cl)cc1C(=O)N1C/C(=C\\c2ccc(Cl)cc2)C(=O)/C(=C/c2ccc(Cl)cc2)C1",
    "CAT": 1
  },
  {
    "SMILES_ENTRY": "COc1ccc(/C=C2\\CN(C(=O)c3ccccc3OC(C)=O)C/C(=C\\c3ccc(OC)cc3)C2=O)cc1",
    "CAT": 0
  },
  {
    "SMILES_ENTRY": "CC(=O)Oc1ccc(Cl)cc1C(=O)N1C/C(=C\\c2ccccc2)C(=O)/C(=C/c2ccccc2)C1",
    "CAT": 0
  },
  {
    "SMILES_ENTRY": "CC(=O)Oc1ccccc1C(=O)N1C/C(=C\\c2cccs2)C(=O)/C(=C/c2cccs2)C1",
    "CAT": 0
  },
  {
    "SMILES_ENTRY": "COc1ccc(/C=C2\\CN(C(=O)c3cc(Cl)ccc3OC(C)=O)C/C(=C\\c3ccc(OC)c(OC)c3)C2=O)cc1OC",
    "CAT": 1
  },
  {
    "SMILES_ENTRY": "CC(=O)Oc1ccccc1C(=O)N1C/C(=C\\c2ccc(C)cc2)C(=O)/C(=C/c2ccc(C)cc2)C1",
    "CAT": 1
  },
  {
    "SMILES_ENTRY": "CC(=O)Oc1ccc(Cl)cc1C(=O)N1C/C(=C\\c2cccs2)C(=O)/C(=C/c2cccs2)C1",
    "CAT": 0
  },
  {
    "SMILES_ENTRY": "CC(=O)Oc1ccccc1C(=O)N1C/C(=C\\c2ccccc2)C(=O)/C(=C/c2ccccc2)C1",
    "CAT": 0
  },
  {
    "SMILES_ENTRY": "COc1cc(/C=C2\\CN(C(=O)c3ccccc3OC(C)=O)C/C(=C\\c3cc(OC)c(OC)c(OC)c3)C2=O)cc(OC)c1OC",
    "CAT": 1
  },
  {
    "SMILES_ENTRY": "COc1ccc(/C=C2\\CN(C(=O)c3cc(Cl)ccc3OC(C)=O)C/C(=C\\c3ccc(OC)cc3)C2=O)cc1",
    "CAT": 0
  },
  {
    "SMILES_ENTRY": "COc1ccc(/C=C2\\CN(C(=O)c3ccccc3OC(C)=O)C/C(=C\\c3ccc(OC)c(OC)c3)C2=O)cc1OC",
    "CAT": 1
  },
  {
    "SMILES_ENTRY": "CC(=O)Oc1ccccc1C(=O)N1C/C(=C\\c2ccc(F)cc2)C(=O)/C(=C/c2ccc(F)cc2)C1",
    "CAT": 0
  },
  {
    "SMILES_ENTRY": "CC(=O)Oc1ccc(Cl)cc1C(=O)N1C/C(=C\\c2ccc(Br)cc2)C(=O)/C(=C/c2ccc(Br)cc2)C1",
    "CAT": 1
  },
  {
    "SMILES_ENTRY": "CC(=O)Oc1ccccc1C(=O)N1C/C(=C\\c2ccc(Cl)cc2)C(=O)/C(=C/c2ccc(Cl)cc2)C1",
    "CAT": 0
  }
]
